Reported log2 fold change values are given for each entry in this list.
# TARGET ENTITY: YIPF5 isoform 3 (UniProt Q969M3)
# Sequence (Q969M3 whole entry, looked up, canonical isoform): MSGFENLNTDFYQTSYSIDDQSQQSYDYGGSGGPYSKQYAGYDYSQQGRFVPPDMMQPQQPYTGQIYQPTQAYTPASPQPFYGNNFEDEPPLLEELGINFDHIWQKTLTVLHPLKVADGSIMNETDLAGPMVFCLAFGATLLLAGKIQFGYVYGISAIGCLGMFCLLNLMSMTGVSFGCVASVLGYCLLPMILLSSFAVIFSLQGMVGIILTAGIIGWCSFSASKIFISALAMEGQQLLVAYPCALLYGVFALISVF
# ASSAY NAME: log2 fold change, soluble protein after heating vs DMSO (PISA); higher = thermal stabilisation; K562 cells, 10 uM, 30 min; active = over 0.2 and 3.5 SD of the protein, either way, in both replicates (recomputed)
Of roughly 7,900 targets only a part is listed; those with a hit were picked by preference. About 0.6% of all pairs of compound and target were hits.
MEASURED PARAMETER: log2 fold change

CHEM SMILES | MEASURED PARAMETER | RECORDED VALUE
CON(C)C(=O)N1N=C(c2cc(F)ccc2F)S[C@@]1(CCCN)c1ccccc1 | log2 fold change | 0.017
CNC(=O)c1ccc(Nc2ncc(C(F)(F)F)c(NCc3nccnc3N(C)S(C)(=O)=O)n2)cc1 | log2 fold change | -0.019
O=C1NC(=NCc2cccs2)S/C1=C\c1ccc2ncccc2c1 | log2 fold change | -0.008
C[C@H](Nc1ncnc2nc[nH]c12)c1cc2cccc(Cl)c2c(=O)n1-c1ccccc1 | log2 fold change | -0.107
CN1CCN(CCOc2cc(OC3CCOCC3)c3c(Nc4c(Cl)ccc5c4OCO5)ncnc3c2)CC1 | log2 fold change | 0.007
O=C1c2ccccc2-c2n[nH]c3cccc1c23 | log2 fold change | -0.153
CC[C@H](C)n1cc(C)c2c(C(=O)NCc3c(C)cc(C)[nH]c3=O)cc(-c3ccc(N4CCNCC4)nc3)cc21 | log2 fold change | -0.041
C#Cc1cccc(Nc2ncnc3cc(OCCOC)c(OCCOC)cc23)c1 | log2 fold change | 0.011

----------
# TARGET ENTITY: ZFP91 (UniProt Q96JP5)
# Sequence (Q96JP5 whole entry, looked up): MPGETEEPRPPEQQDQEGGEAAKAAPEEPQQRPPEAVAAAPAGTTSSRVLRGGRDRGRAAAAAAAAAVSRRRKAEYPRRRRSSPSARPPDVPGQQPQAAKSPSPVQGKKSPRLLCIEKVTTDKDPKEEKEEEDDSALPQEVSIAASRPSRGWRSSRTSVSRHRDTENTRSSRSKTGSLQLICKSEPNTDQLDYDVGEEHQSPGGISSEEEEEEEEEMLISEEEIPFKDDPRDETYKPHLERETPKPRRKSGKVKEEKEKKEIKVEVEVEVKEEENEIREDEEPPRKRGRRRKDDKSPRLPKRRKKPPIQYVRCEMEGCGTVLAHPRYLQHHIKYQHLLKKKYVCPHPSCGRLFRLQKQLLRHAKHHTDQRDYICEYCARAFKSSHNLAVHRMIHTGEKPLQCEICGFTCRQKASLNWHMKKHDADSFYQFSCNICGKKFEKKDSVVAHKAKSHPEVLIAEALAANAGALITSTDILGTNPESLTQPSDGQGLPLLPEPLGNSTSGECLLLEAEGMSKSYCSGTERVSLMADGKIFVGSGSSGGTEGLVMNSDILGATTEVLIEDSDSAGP
# ASSAY NAME: log2 fold change, soluble protein after heating vs DMSO (PISA); higher = thermal stabilisation; K562 cells, 10 uM, 30 min; active = over 0.2 and 3.5 SD of the protein, either way, in both replicates (recomputed)
Targets with a hit are over-represented here; the source holds about 7,900 in all. About 0.6% of all pairs of compound and target were hits.
Reported log2 fold change values are given for each entry in this list.

CHEM SMILES | TARGET ENTITY | log2 fold change
C=CC(=O)N1CCC[C@@H](n2nc(-c3ccc(Oc4ccccc4)cc3)c3c(N)ncnc32)C1 | ZFP91 (UniProt Q96JP5) | 0
CC[C@@H]1C(=O)N(C)c2cnc(Nc3ccc(C(=O)N[C@H]4CC[C@H](N5CCN(CC6CC6)CC5)CC4)cc3OC)nc2N1C(C)C | ZFP91 (UniProt Q96JP5) | 0.016
O=C1NC(=O)C(c2cnc3ccccn23)=C1c1cn2c3c(cc(F)cc13)CN(C(=O)N1CCCCC1)CC2 | ZFP91 (UniProt Q96JP5) | 0.073
CNC(=O)c1ccc(Nc2ncc(C(F)(F)F)c(NCc3nccnc3N(C)S(C)(=O)=O)n2)cc1 | ZFP91 (UniProt Q96JP5) | 0.054

----------
Reported log2 fold change values are given for each entry in this list.
# TARGET ENTITY: ZDHHC17 (UniProt Q8IUH5)
# Sequence (Q8IUH5 whole entry, looked up): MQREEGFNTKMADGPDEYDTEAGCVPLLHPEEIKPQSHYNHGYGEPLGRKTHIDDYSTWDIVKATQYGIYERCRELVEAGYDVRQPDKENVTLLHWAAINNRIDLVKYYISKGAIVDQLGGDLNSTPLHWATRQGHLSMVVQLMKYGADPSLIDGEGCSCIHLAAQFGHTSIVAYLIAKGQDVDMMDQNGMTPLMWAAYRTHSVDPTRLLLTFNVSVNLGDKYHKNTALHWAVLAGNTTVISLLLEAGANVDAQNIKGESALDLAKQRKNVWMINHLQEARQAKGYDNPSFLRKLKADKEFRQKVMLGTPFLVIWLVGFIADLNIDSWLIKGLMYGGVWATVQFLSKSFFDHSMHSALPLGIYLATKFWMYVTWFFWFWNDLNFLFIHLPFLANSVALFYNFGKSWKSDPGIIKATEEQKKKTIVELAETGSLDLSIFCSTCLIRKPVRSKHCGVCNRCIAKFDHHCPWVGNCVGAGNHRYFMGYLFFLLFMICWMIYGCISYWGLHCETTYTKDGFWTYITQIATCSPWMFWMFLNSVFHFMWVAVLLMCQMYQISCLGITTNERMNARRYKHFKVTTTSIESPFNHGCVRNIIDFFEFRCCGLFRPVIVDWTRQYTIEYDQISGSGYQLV
# ASSAY NAME: log2 fold change, soluble protein after heating vs DMSO (PISA); higher = thermal stabilisation; K562 cells, 10 uM, 30 min; active = over 0.2 and 3.5 SD of the protein, either way, in both replicates (recomputed)
Of roughly 7,900 targets only a part is listed; those with a hit were picked by preference. About 0.6% of all pairs of compound and target were hits.

COMPOUND | log2 fold change
Cc1nc(Nc2ncc(C(=O)Nc3c(C)cccc3Cl)s2)cc(N2CCN(CCO)CC2)n1 | -0.002
CC(C)c1cnn2c(NCc3ccccc3)cc(NCCCCCCN)nc12 | -0.061
CC1=C(C(=O)Nc2cc3cn[nH]c3cc2F)C(c2ccc(C(F)(F)F)cc2)CC(=O)N1 (configuration not stated) | -0.013
O=C(O)c1ccc2c(c1)nc(Nc1cccc(Cl)c1)c1ccncc12 | 0.025
C=CC(=O)N1CCC[C@@H](n2nc(-c3ccc(Oc4ccccc4)cc3)c3c(N)ncnc32)C1 | -0.029
COc1cc(Nc2ncc3c(n2)-c2ccc(Cl)cc2C(c2c(F)cccc2OC)=NC3)ccc1C(=O)O | -0.02
CN1CCc2c(c3ccccc3n2Cc2ccc(C(=O)NO)cc2)C1 | -0.012
O=C(Nc1cccc(Nc2ncc(Br)c(NCCc3cnc[nH]3)n2)c1)N1CCCC1 | 0.011
Cc1cc(Nc2cc(CN3CCOCC3)c3nc(C)c(Cc4ccc(Cl)cc4F)n3n2)n[nH]1 | 0.052
Cc1nc(Nc2n[nH]c3c2CN(C(=O)N[C@H](CN(C)C)c2ccccc2)C3(C)C)c2sccc2n1 | -0.012
Cc1cc(Nc2cc(N3CCN(C)CC3)nc(Sc3ccc(NC(=O)C4CC4)cc3)n2)n[nH]1 | -0.02
CS(=O)(=O)c1ccc(-c2cnc(N)c(C(=O)Nc3ccccc3)n2)cc1 | -0.005
O=C1NC(=O)/C(=C\c2ccc3nccnc3c2)S1 | 0.11
CCn1cc(-c2ccnc3[nH]c(-c4cccc(CN(C)C)c4)cc23)c(-c2ccc(NC(=O)N(C)C)cc2)n1 | -0.018
Cn1cc(-c2ccc3nnc(C(F)(F)c4ccc5ncccc5c4)n3n2)cn1 | -0.029
Fc1ccc(Cl)cc1-c1nc(Nc2ccncc2)c2nccnc2n1 | -0.006
C[C@@H](N)c1ccc(C(=O)Nc2ccnc3[nH]ccc23)cc1 | -0.03
Cc1cc(SCc2sc(-c3ccc(C(F)(F)F)cc3)nc2C)ccc1OCC(=O)O | -0.04
NC1(Cc2ccc(Cl)cc2)CCN(c2ncnc3[nH]ccc23)CC1 | 0.022
Oc1cc(-c2nc(-c3ccccc3)[nH]c2-c2ccncc2)ccc1Cl | 0.002
COc1cccc2cc(-c3nc([C@H]4CC[C@H](C(=O)O)CC4)n4ncnc(N)c34)[nH]c12 | 0.003
CS(=O)(=O)CCNCc1ccc(-c2ccc3ncnc(Nc4ccc(OCc5cccc(F)c5)c(Cl)c4)c3c2)o1 | -0.022
CNCc1ccc(-c2[nH]c3cc(F)cc4c3c2CCNC4=O)cc1 | -0.034
CN1CC[C@H](c2c(O)cc(O)c3c(=O)cc(-c4ccccc4Cl)oc23)[C@H](O)C1 | -0.027
CN1CCC(CNc2ccc3ncc(-c4cccc(OC(F)(F)F)c4)n3n2)CC1 | 0.065
COc1cc2ncnc(Nc3ccc(F)c(Cl)c3)c2cc1OCCCN1CCOCC1 | 0.04
O=C1NC(=O)C(c2cnc3ccccn23)=C1c1cn2c3c(cc(F)cc13)CN(C(=O)N1CCCCC1)CC2 | 0.043
CCCS(=O)(=O)Nc1ccc(F)c(C(=O)c2c[nH]c3ncc(Cl)cc23)c1F | -0.016
CN1CCN(CCOc2cc(OC3CCOCC3)c3c(Nc4c(Cl)ccc5c4OCO5)ncnc3c2)CC1 | -0.009
CCCCN(Cc1ccc(C(=O)NO)cc1)C(=O)Nc1ccccc1 | -0.086
Cc1ccc(NC(=O)c2cccc(C(C)(C)C#N)c2)cc1Nc1ccc2ncn(C)c(=O)c2c1 | 0.076
Cc1ccc(C(=O)N(CCCN)[C@@H](c2nc3cc(Cl)ccc3c(=O)n2Cc2ccccc2)C(C)C)cc1 | 0.023
